Tested Target: T1, GST-human NOGO-A56 (human, UniProt P08515 1-218 = GST)
T1 construct: GST-tagged fusion expressed in E. coli BL21 and purified on glutathione-sepharose; coated on ELISA plates or amine-coupled to a CM5 chip; also called hNOGO; recombinant human NOGO
T1 sequence (P08515 1-218, tags or fused parts left off): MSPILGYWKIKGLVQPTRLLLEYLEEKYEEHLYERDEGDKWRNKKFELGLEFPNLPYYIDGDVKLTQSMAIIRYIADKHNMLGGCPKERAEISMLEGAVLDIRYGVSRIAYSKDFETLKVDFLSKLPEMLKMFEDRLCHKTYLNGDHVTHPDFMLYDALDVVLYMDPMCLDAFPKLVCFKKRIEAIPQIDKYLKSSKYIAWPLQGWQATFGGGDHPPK
Assay Method Text: SPR (Biacore 3000), GST-human NOGO-A56 on CM5, antibody as analyte; single experiment
Quantity: kon (M⁻¹ s⁻¹)
Could you give me the number in M⁻¹ s⁻¹? Just the number is fine.

So for H14L16 (antibody, human IgG1, kappa, V domains shown) VH: QVQLVQSGAEVVKPGASVKLSCKASGYTFTSYWMHWVKQAPGQGLEWIGNINPSNGGTNYNEKFKSRATLTRDTSTSTAYMELSSLRSEDTAVYYCELGQGYWGQGTLVTVSS VL: DIVMTQSPLSNPVTLGQPVSISCRSSKSLLYKDGKTYLNWFLQRPGQSPQLLIYLMSTRASGVPDRFSGGGSGTDFTLKISRVEAEDVGVYYCQQLVEYPLTFGQGTKLEIKR , the logged kon turned out to be 2.05e+06
